- TEST SUMMARY: chemical genetic growth profiling, strain panel (AID 1159580);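 further: tested at 20 µM; growth read once vehicle control cultures reached saturation at 30 °C; 1 = growth at the plate median or of vehicle wells; lower values mean less growth of the strain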
- SETTINGS: S. cerevisiae deletion strains, growth OD, locus YJR066W, strain TOR1, hits give low values
The whole screen tested about 5,500 compounds, of which about 2,000 (36%) were called active. Roughly 18% stayed inconclusive and do not appear here. The list shows a part of the results.
normalized growth reference
The reply should be a number, written without any unit.

Consider the reported normalized growth for these compounds:
COMPOUND	normalized growth
NC(=O)c1ccc(N)nc1	0.951
CN(C)/C=C/C(=O)c1ccc(C#Cc2ccccc2)cc1	0.94
C#CCN(C)C(C)Cc1ccccc1 (configuration not stated)	0.95
CCN(CC)CCOC(=O)C(Cc1cccc2ccccc12)CC1CCCO1 (configuration not stated)	0.95

Inquiry: What measured normalized growth goes with OC1CCCCC1N1CCC(c2ccccc2)CC1 (configuration not stated) ?
Reply text: 0.934

Inquiry: Which normalized growth is listed for C[C@](N)(Cc1ccc(O)c(O)c1)C(=O)O ?
Reply text: 0.99

Inquiry: What normalized growth value was documented for this compound, O=C(Nc1ccc(Cl)cc1Cl)c1cnccc1C(F)(F)F ?
Reply text: 1.12

Inquiry: Value lookup for normalized growth; key = CCOC(=O)C(C)(N)Cc1ccc(O)c(O)c1 (configuration not stated)
Reply text: 1

Inquiry: GET /values?readout=normalized growth&item= CC1(C)C2CC(=O)O[C@@]3(C)C4=CC(=O)O[C@@H](c5ccoc5)[C@]4(C)CCC3[C@@]2(C)C=C[C@H]1O (some centres not stated)
Reply text: 0.946

Inquiry: Endpoint output: normalized growth of N/C(=N/OC(=O)c1ccc(Cl)cc1)c1ccc(F)cc1F . Value?
Reply text: 0.309

Inquiry: I have this compound here, Cc1onc(-c2ccccc2Cl)c1-c1nc2ccccc2c(=O)o1 , and I need its recorded normalized growth.
Reply text: 0.978

Inquiry: Entry O=C(O)CNCP(=O)(O)O has what normalized growth?
Reply text: 0.926

----------
- TEST SUMMARY: chemical genetic growth profiling, strain panel (AID 1159580)
- SETTINGS: S. cerevisiae deletion strains, growth OD, locus YER111C, strain swi4, hits give low values
The whole screen tested about 5,500 compounds, of which about 2,000 (36%) were called active. Roughly 18% stayed inconclusive and do not appear here. Some of the results follow.
RECORDED ENDPOINT: normalized growth

// known answers, use as guide
MOLECULE	VALUE OBSERVED
CN(C)CCCO[C@H]1[C@@H](C(O)CO)OC2OC(C)(C)O[C@@H]21 (stereo partly drawn)	0.986 (inactive)
O=C1N=C(O)CN1/N=C\c1ccc(-c2ccc([N+](=O)[O-])cc2)o1	0.968 (inactive)
COc1ccc(CN(CCN(C)C)c2ncccn2)cc1	1.02 (inactive)
CCC(COC(=O)c1cc(OC)c(OC)c(OC)c1)(c1ccccc1)N(C)C (stereo not drawn)	0.983 (inactive)
COc1ccc(/C=C/C(=O)O)cc1OC	0.974 (inactive)
NC(=O)c1cnccn1	0.993 (inactive)
COc1cc(/C=C/C(=O)O)cc(OC)c1OC	0.984 (inactive)
NCCCCN=C(N)N	1.03 (inactive)

Inquiry: Find the recorded normalized growth belonging to CCOC(=O)CCCCCCCCCCCCC1C=CCC1 (stereo not drawn) and report it.
Reply text: 0.958 (inactive)

Inquiry: Give the measured normalized growth of O=C1OCCN1/N=C\c1ccc([N+](=O)[O-])o1 .
Reply text: 1.01 (inactive)

Inquiry: What does the data say about its normalized growth? Entry: CC1(C)O[C@@H]2CC3C4CCC5=CC(=O)C=C[C@]5(C)C4[C@@H](O)C[C@]3(C)[C@]2(C(=O)CO)O1 (stereo partly drawn)
Reply text: 1 (inactive)

Inquiry: normalized growth lookup needed for COc1ccc(/C=C/C(=O)c2cc(O)ccc2O)cc1 , thanks.
Reply text: 0.0945 (active)

Inquiry: Field request: normalized growth | item: COc1cc(/C=C/C(=O)O)ccc1O
Reply text: 1.01 (inactive)

----------
- TEST SUMMARY: chemical genetic growth profiling, strain panel (AID 1159580)
- SETTINGS: S. cerevisiae deletion strains, growth OD, locus YLR221C, strain rsa3
Screen size: about 5,500 compounds; about 2,000 (36%) were called active. About 18% were inconclusive and are not listed. Rule as the data show it: active = normalized growth mostly below about 0.91 (no sharp cut-off); inconclusive = no clear call, values can overlap the other calls; inactive = mostly above about 0.92. The list shows a part of the results.
Choose one outcome from this list and give only that: 1 (yes) = active, 0 (no) = inactive

Use the examples below as a reference point.
COMPOUND	DISCRETE LABEL
COc1ccc(C=CC(=O)c2ccc(O)cc2O)cc1OC	1 (yes)
Cc1cccc(CN2CCN(C(c3ccccc3)c3ccc(Cl)cc3)CC2)c1 (centres undefined)	1 (yes)
CC[C@]1(O)CC2CN(CCc3c([nH]c4ccccc34)[C@@](C(=O)OC)(c3cc4c(cc3OC)N(C=O)[C@H]3[C@@](O)(C(=O)OC)[C@H](OC(C)=O)[C@]5(CC)C=CCN6CC[C@]43[C@@H]65)C2)C1 (some centres undefined)	0 (no)

Inquiry: Answer briefly: the call reported for NC(=O)c1cc[n+](CC2=C(C(=O)O)N3C(=O)C(NC(=O)C(c4ccccc4)S(=O)(=O)[O-])C3SC2)cc1 (centres undefined) in this assay.
Reply text: 0 (no)

----------
- TEST SUMMARY: chemical genetic growth profiling, strain panel (AID 1159580);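 further: tested at 20 µM; growth read once vehicle control cultures reached saturation at 30 °C; 1 = growth at the plate median or of vehicle wells; lower values mean less growth of the strain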
- SETTINGS: S. cerevisiae deletion strains, growth OD, locus YDR335W, strain msn5, hits give low values
Among all 5,500 compounds or so, about 2,000 (36%) were called active. Roughly 18% stayed inconclusive and do not appear here. The list shows a part of the results.
The molecules listed here are annotated with their normalized growth.
Form field (numeric): enter value without unit.

Inquiry: For COc1ccc(C=CC(=O)c2ccc(O)cc2O)cc1OC , what is its reported normalized growth?
Reply text: 0.973

Inquiry: Sample O=C1O[C@@H](CO)[C@H](O)[C@@H](O)[C@@H]1O — what was its normalized growth?
Reply text: 1.01

Inquiry: Can you look up the measured normalized growth of COc1cc(/C=C/C(=O)O)cc(OC)c1OC for me?
Reply text: 0.987

Inquiry: What value of normalized growth has been reported for the following molecule? Nc1ccc(S(=O)(=O)Nc2nccs2)cc1
Reply text: 1.02

Inquiry: Consider the molecule COc1ccc(/C=C/C(=O)O)cc1OC and give its measured normalized growth.
Reply text: 0.984

Inquiry: Query (molecule): COc1ccc(-c2cc(C(F)F)nn2-c2ccc(S(N)(=O)=O)cc2)cc1F ; field requested: normalized growth
Reply text: 1

----------
- TEST SUMMARY: chemical genetic growth profiling, strain panel (AID 1159580);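 further: tested at 20 µM; growth read once vehicle control cultures reached saturation at 30 °C; 1 = growth at the plate median or of vehicle wells; lower values mean less growth of the strain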
- SETTINGS: S. cerevisiae deletion strains, growth OD, locus YOR316C, strain cot1, hits give low values
In all, about 5,500 compounds went through this assay and about 2,000 (36%) were called active. About 18% were inconclusive and are not listed. The list shows a part of the results.
RECORDED ENDPOINT: normalized growth
Give the value as a plain number.

Example compounds with recorded normalized growth:
COMPOUND	normalized growth
Nc1nc2c(c(=O)[nH]1)N(C=O)C(CNc1ccc(C(=O)N[C@@H](CCC(=O)O)C(=O)O)cc1)CN2 (stereo not given in full)	0.987
CCOC(=O)c1ccc(N)cc1	0.989
C=CCN1CC[C@]23c4c5ccc(O)c4OC2C(=O)CC[C@@]3(O)[C@H]1C5 (stereo not given in full)	0.994
CC1=C(/C=C/C(C)=C/C=C/C(C)=C/C(=O)O)C(C)(C)CCC1	1.02
CN(Cc1cnc2nc(N)nc(N)c2n1)c1ccc(C(=O)NC(CCC(=O)O)C(=O)O)cc1 (stereo not given)	0.984

Inquiry: Item CO[C@@H]1[C@@H](O[C@@H]2O[C@H](C)[C@@H](O[C@H]3C[C@@](C)(O)[C@H](O)[C@H](C)O3)[C@H](N(C)C)[C@H]2O)[C@@H](CC=O)C[C@@H](C)[C@@H](O[C@H]2CC[C@H](N(C)C)[C@@H](C)O2)/C=C/C=C/C[C@H](C)OC(=O)C[C@H]1O has what recorded normalized growth?
Reply text: 1.01

Inquiry: Requested read-out: normalized growth. Entry: O=C(O)CNCP(=O)(O)O
Reply text: 1.01

Inquiry: For the compound CN=C1CN(O)C(c2ccccc2)=c2cc(Cl)ccc2=N1 , what normalized growth is on record?
Reply text: 0.975

Inquiry: Need normalized growth, item O=C1N=C(O)CN1/N=C\c1ccc(-c2ccc([N+](=O)[O-])cc2)o1
Reply text: 1.02

----------
- TEST SUMMARY: chemical genetic growth profiling, strain panel (AID 1159580);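 further: tested at 20 µM; growth read once vehicle control cultures reached saturation at 30 °C; 1 = growth at the plate median or of vehicle wells; lower values mean less growth of the strain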
- SETTINGS: S. cerevisiae deletion strains, growth OD, locus YGR040W, strain KSS1, hits give low values
About 2,000 (36%) of roughly 5,500 compounds were called active. Another 18% or so got no clear call; they are omitted. Some of the results follow.
normalized growth reference
Hey, just send me the number, nothing else.

MOLECULE	normalized growth
CCCCCCCC1CCC/C1=N/OC(=O)c1cccs1 (configuration not stated)	0.967

Inquiry: Which normalized growth is reported for this molecule? COc1cc(Cl)c(NS(=O)(=O)c2cc(Br)c(Br)s2)c(OC)c1
Reply text: 0.888

Inquiry: Recorded normalized growth for CC1(C)C/C(=N/Nc2ccc(C(F)(F)F)cc2)c2cc(C(C)(C)C)c(O)c(O)c2O1 , please?
Reply text: 0.635

Inquiry: What value of normalized growth has been reported for the following molecule? N=C(N)SCc1nc(-c2ccc(Cl)cc2)no1
Reply text: 0.98

Inquiry: Please give the measured normalized growth for this molecule: O=C1/C(=C/c2c(F)cccc2Cl)Cc2ccccc21
Reply text: 0.947

Inquiry: Param item = Cc1onc(-c2ccccc2Cl)c1-c1nc2ccccc2c(=O)o1 ; retrieve measured normalized growth.
Reply text: 0.96

Inquiry: Value lookup for normalized growth; key = COc1cc(C(=O)Oc2c(Cl)cc(Cl)cc2C=Nc2cccc([N+](=O)[O-])c2)cc(OC)c1OC
Reply text: 0.648

Inquiry: Report normalized growth for COc1cc(C(=O)Oc2c(Cl)cc(Cl)cc2C=Nc2ccc([N+](=O)[O-])cc2C#N)cc(OC)c1OC please.
Reply text: 0.622

Inquiry: // query normalized growth value for entry COc1cc(N=Cc2cc(Cl)cc(Cl)c2OS(=O)(=O)c2ccc(C)cc2)c(OC)cc1Cl
Reply text: 0.918

Inquiry: Any idea what normalized growth was measured for CC12CC[C@@H](O)CC1=CC[C@@H]1C2CCC2(C)C(=O)CC[C@@H]12 (some centres not stated) ?
Reply text: 0.889

Inquiry: For CCC1CCC(C)N(C(=S)Nc2ccc(Br)cc2C)C1 (configuration not stated) , what is its reported normalized growth?
Reply text: 0.963

Inquiry: Would you kindly share the measured normalized growth for O=C(NCc1ccco1)c1csc(C2COc3ccccc3O2)n1 (configuration not stated) ?
Reply text: 0.868

Inquiry: What measured normalized growth goes with Cc1cc(C(=O)O/N=C(/N)c2ccc([N+](=O)[O-])o2)no1 ?
Reply text: 0.848

Inquiry: Suppose we examine the molecule CSc1c(C#N)c(-c2ccc(Cl)cc2)nn1C(=O)c1ccccc1Cl ; what normalized growth value has been reported?
Reply text: 0.931

Inquiry: Given the molecule COCCOc1ccccc1NC(=S)SCCSC(=S)Nc1ccccc1OCCOC , what is its reported normalized growth?
Reply text: 0.938

Inquiry: Dear colleague, I am looking for the recorded normalized growth of the following molecule: O=C(Nc1ccccn1)c1cc(-c2ccccc2)c(C(F)(F)F)s1
Reply text: 0.96

Inquiry: // lookup normalized growth for COc1cc(C(=O)Oc2c(Cl)cc(Cl)cc2C=Nc2cccc(C(F)(F)F)c2)cc(OC)c1OC
Reply text: 0.636
